Molecular target: IDE (Homo sapiens, UniProt P14735)
Construct: made in house; host or cells: bacteria
Sequence (P14735 1-1019): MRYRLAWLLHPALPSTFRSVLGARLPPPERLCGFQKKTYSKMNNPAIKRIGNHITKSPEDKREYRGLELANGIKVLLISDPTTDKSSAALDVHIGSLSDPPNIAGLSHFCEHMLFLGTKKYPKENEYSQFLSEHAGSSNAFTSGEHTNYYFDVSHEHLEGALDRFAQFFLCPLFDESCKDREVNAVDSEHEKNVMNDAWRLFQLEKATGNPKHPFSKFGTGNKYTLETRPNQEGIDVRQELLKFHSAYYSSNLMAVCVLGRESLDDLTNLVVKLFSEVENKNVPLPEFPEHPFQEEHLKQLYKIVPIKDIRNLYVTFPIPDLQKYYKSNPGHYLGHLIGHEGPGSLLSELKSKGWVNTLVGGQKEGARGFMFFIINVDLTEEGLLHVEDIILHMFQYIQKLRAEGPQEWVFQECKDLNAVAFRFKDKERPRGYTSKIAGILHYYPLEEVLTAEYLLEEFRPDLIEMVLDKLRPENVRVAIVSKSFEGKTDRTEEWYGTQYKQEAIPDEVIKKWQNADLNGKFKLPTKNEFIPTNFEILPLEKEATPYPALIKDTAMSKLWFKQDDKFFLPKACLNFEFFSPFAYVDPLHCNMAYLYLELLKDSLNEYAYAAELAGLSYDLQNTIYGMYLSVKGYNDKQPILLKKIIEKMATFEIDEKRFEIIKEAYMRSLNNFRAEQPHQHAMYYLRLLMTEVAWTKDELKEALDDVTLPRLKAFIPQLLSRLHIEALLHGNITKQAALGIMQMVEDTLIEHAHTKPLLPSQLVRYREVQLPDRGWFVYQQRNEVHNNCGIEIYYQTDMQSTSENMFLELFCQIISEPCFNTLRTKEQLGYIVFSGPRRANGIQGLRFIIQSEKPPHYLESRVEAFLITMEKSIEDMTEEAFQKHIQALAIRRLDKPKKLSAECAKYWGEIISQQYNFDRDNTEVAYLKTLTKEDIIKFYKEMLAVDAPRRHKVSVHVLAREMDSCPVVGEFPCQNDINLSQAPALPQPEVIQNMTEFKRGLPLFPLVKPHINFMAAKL
Experiment: IDE protease activity assay, insulin degradation quantified by ELISA
Assay type: biochemical
Conditions: substrate recombinant human insulin; Ki converted from IC50 with the Cheng-Prusoff equation; read-out: Ki Insulin
Text: To assess the extent to which these peptide sequences inhibit IDE, we quantified their potency in protease activity assays using recombinant human IDE and two different substrates: FRET1, a fluorogenic peptide (45), and recombinant human insulin. […]
Where a SMILES comes first, the peptide text is derived from it. Bridges are numbered along the chain shown (N, C = ends).
recorded endpoint: pKi
pKi here: minus log base 10 of the concentration, concentration in moles per litre.

compound="CC(C)C[C@H](NC(=O)[C@H](CO)NC(=O)[C@@H](N)CCC(N)=O)C(=O)N1CCC[C@H]1C(=O)N[C@@H](Cc1c[nH]c2ccccc12)C(=O)N[C@H]1CSSC[C@@H](C(=O)N[C@H](C(=O)N[C@H](C(N)=O)[C@@H](C)O)C(C)C)NC(=O)[C@H](Cc2c[nH]cn2)NC(=O)[C@@H]2CCCN2C(=O)[C@H](Cc2ccc(O)cc2)NC1=O [Peptide P12-3A] (H-QSLPWCYPHCVT-NH2; disulfide 6-10 (inferred))" observed_measurement=5.39
compound="CC(C)[C@H](N)C(=O)N[C@@H](Cc1c[nH]cn1)C(=O)N[C@@H](Cc1c[nH]c2ccccc12)C(=O)N[C@@H](CC(=O)O)C(=O)N[C@@H](Cc1ccccc1)C(=O)N[C@@H](CCCNC(=N)N)C(=O)N[C@@H](CCC(N)=O)C(=O)N[C@@H](Cc1c[nH]c2ccccc12)C(=O)N[C@@H](Cc1c[nH]c2ccccc12)C(=O)N[C@@H](CCC(N)=O)C(=O)N1CCC[C@H]1C(=O)N[C@@H](CO)C(N)=O [Peptide P12-1A] (H-VHWDFRQWWQPS-NH2)" observed_measurement=5.89

Looking for the measured pKi of CC(C)[C@H](N)C(=O)N[C@@H](Cc1c[nH]cn1)C(=O)N[C@@H](Cc1c[nH]c2ccccc12)C(=O)N[C@@H](CC(=O)O)C(=O)N[C@@H](Cc1ccccc1)C(=O)N[C@@H](CCCNC(=N)N)C(=O)N[C@@H](CCC(N)=O)C(=O)N[C@@H](Cc1c[nH]c2ccccc12)C(N)=O [Peptide P12-1B] (H-VHWDFRQW-NH2) , can you help? 5.15

Looking for the measured pKi of CC[C@H](C)[C@@H]1NC(=O)[C@H](CO)NC(=O)[C@H](Cc2c[nH]c3ccccc23)NC(=O)[C@H](Cc2c[nH]c3ccccc23)NC(=O)[C@H](CO)NC(=O)[C@@H](NC(=O)[C@H](C)N)CSSC[C@@H](C(=O)NCC(=O)O)NC(=O)[C@H](CC(C)C)NC(=O)[C@H](Cc2c[nH]cn2)NC1=O [Peptide C7C-1] (H-ACSWWSIHLCG-OH; disulfide 2-10) , can you help? 5.43

Looking for the measured pKi of CC[C@H](C)[C@H](NC(=O)[C@@H]1CCCN1C(=O)[C@H](CO)NC(=O)[C@@H](N)Cc1c[nH]c2ccccc12)C(=O)N[C@@H](CO)C(=O)NCC(=O)N[C@@H](CCCCN)C(=O)N[C@@H](Cc1ccccc1)C(=O)N[C@@H](Cc1ccccc1)C(=O)N[C@@H](CCC(N)=O)C(=O)N[C@@H](CCCNC(=N)N)C(=O)N[C@@H](Cc1ccccc1)C(=O)O [Peptide P12-4] (H-WSPISGKFFQRF-OH) , can you help? 5.82

Looking for the measured pKi of CC(C)[C@H](N)C(=O)N[C@@H](Cc1c[nH]cn1)C(=O)N[C@@H](Cc1c[nH]c2ccccc12)C(=O)N[C@@H](CC(=O)O)C(=O)N[C@@H](Cc1ccccc1)C(=O)N[C@@H](CCCNC(=N)N)C(=O)N[C@@H](CCC(N)=O)C(=O)N[C@@H](Cc1c[nH]c2ccccc12)C(=O)N[C@@H](Cc1c[nH]c2ccccc12)C(=O)N[C@@H](CCC(N)=O)C(=O)N1CCC[C@H]1C(=O)N[C@@H](CO)C(=O)O [Peptide P12-1] (H-VHWDFRQWWQPS-OH) , can you help? 6.10

Looking for the measured pKi of CC[C@H](C)[C@H](NC(=O)[C@@H]1CCCN1C(=O)[C@H](CO)NC(=O)[C@@H](N)Cc1c[nH]c2ccccc12)C(=O)N[C@@H](CO)C(=O)NCC(=O)N[C@@H](CCCCN)C(=O)N[C@@H](Cc1ccccc1)C(=O)N[C@@H](Cc1ccccc1)C(=O)N[C@@H](CCC(N)=O)C(=O)N[C@@H](CCCNC(=N)N)C(=O)N[C@@H](Cc1ccccc1)C(N)=O [Peptide P12-4A] (H-WSPISGKFFQRF-NH2) , can you help? 5.59

Hey, just so you know, these numbers are from patent US11555055B2.
